The measurements presented in this section are drawn from paper PMC5059943.

Let's look at some binders and their measured pKd.
Target: T1, IL-7Rα 21-239 (Homo sapiens, UniProt P16871)
T1 chain: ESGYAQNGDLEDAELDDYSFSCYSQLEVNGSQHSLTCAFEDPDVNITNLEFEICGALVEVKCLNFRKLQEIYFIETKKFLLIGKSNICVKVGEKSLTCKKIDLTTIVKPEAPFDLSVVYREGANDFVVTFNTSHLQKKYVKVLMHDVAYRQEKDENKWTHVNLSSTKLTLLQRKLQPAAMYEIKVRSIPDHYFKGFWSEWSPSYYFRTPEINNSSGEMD
Test: ELISA
Bridges are numbered along the chain shown (N, C = ends). Where no end group is shown, it is not given here.
Would you please state pKd, meaning minus log10 of the concentration in mol/L, as a bare number?

Use the examples below as a reference point.
>>> df
                                     binder  data_value
0  ASACPPH (also: biotin-AEEA attached, end not given here) [P258]        6.22
1  CKIMKSMPC (disulfide 1-9 (inferred); also: biotin-AEEA attached, end not given here) [P725]        5.96

Turning to the following binder.
*Q* Fill in pKd for record ASACPPH-NH2 (also: AEEA attached, end not given here, conjugated to PEGylated USPIO) [USPIO-P258]
*A* 5.31
